Provenance of the data: ChEMBL document CHEMBL1157539

system: Plasmodium falciparum; assay: GSK_TCMDC: Inhibition of Plasmodium falciparum 3D7 in whole red blood cells, using parasite LDH activity as an index of growth. Test compounds present at 2uM; type: functional
Examples of compounds with documented Inhibition follow.
Kindly provide the numeric value in % only, without the unit symbol.

[[record]]
compound = "CCCCCc1cc(O)c2c(c1)OC(C)(C)C=C2C1=CCN(Cc2ccsc2)CC1"
quantity = "Inhibition"
observed_result = 98

[[record]]
compound = "Cc1cc2c(NC(=O)NC3CCN(Cc4ccc(Cl)c(Cl)c4)CC3)cccc2cn1.Cl"
quantity = "Inhibition"
observed_result = 100

[[record]]
compound = "O=C(Nc1ccccc1)c1c[nH]cn1"
quantity = "Inhibition"
observed_result = 92

[[record]]
compound = "Br.CCOc1ccc(CCCON2C(=N)N=C(N)NC2(C)C)cc1"
quantity = "Inhibition"
observed_result = 93

[[record]]
compound = "CCCc1ccccc1OCC(O)CN(C1CCCC1)C1CCCC1.Cl (stereo unspecified)"
quantity = "Inhibition"
observed_result = 97


Now let's try a different one.
[in] I have this compound here, CCN(CC)CCOc1ccc(C(O)(C#CC(O)(c2ccccc2)c2ccc(OCCN(CC)CC)cc2)c2ccccc2)cc1 (stereo unspecified) , and I need its recorded Inhibition.
[out] 99

====

Examples of compounds with documented Inhibition follow.
system: HepG2; experiment: GSK_TCMDC: Percent inhibition of human HepG2 cell line. Test compounds present at 10uM.; format: functional
Kindly provide the numeric value in % only, without the unit symbol.

[[record]]
compound_structure = "Cc1cccc2nc(-c3cccc(-c4cccc(C(=O)NCc5nccn5C)c4)c3)[nH]c12"
unit_of_measurement = "%"
observed_result = 22

[[record]]
compound_structure = "COc1c(C2CCN(CCCCNC(=O)c3cccc(-c4ccc(C(F)(F)F)cc4)c3)CC2)ccc2c1CCCC2"
unit_of_measurement = "%"
observed_result = 50

[[record]]
compound_structure = "FC(F)(F)c1ccc2[nH]c(-c3ccc(-c4cccc(CN5CCN(c6ccncc6)CC5)c4)cc3)nc2c1.O=C(O)C(F)(F)F"
unit_of_measurement = "%"
observed_result = 82


[in] I have this compound here, `COc1c(C2=CCN(CCCCNC(=O)c3ccc(-c4ccc(C#N)cc4)cc3)CC2)ccc2c1CCCC2` , and I need its recorded Inhibition.
[out] 44

====

system: Plasmodium falciparum; assay: GSK_TCMDC: Inhibition of Plasmodium falciparum 3D7 in whole red blood cells, using parasite LDH activity as an index of growth. Test compounds present at 2uM; assay type: functional
quantity: Inhibition (%)
Kindly provide the numeric value in % only, without the unit symbol.

Known results for compounds:
[[record]]
compound = "CCCCNC(=O)C1CCCN(C(=O)c2ccc(O)c(-c3ccc(Cl)c(Cl)c3)c2)C1 (configuration not stated)"
target_system = "Plasmodium falciparum"
unit_of_measurement = "%"
observed_result = 83

[[record]]
compound = "COc1ccc2nccc([C@@H](O)CN3CCC(NCc4ccc5c(c4)oc(=S)n5C)CC3)c2c1.O=C(O)/C=C/C(=O)O"
target_system = "Plasmodium falciparum"
unit_of_measurement = "%"
observed_result = 100

[[record]]
compound = "CCCOc1cc(Cc2cnc(N)nc2N)cc(OC)c1OC"
target_system = "Plasmodium falciparum"
unit_of_measurement = "%"
observed_result = 85


[in] I have this compound here, `COc1ccccc1CNC(=O)c1cc(Br)cc(N2CCN(c3ccncc3)CC2)c1.O=C(O)C(F)(F)F` , and I need its recorded Inhibition.
[out] 95

[in] I have this compound here, `CCCCN(CCCC)CCCCNc1c2ccc(Cl)cc2nc2ccc(OC)cc12.Cl` , and I need its recorded Inhibition.
[out] 100

====

test system: HepG2; test: GSK_TCMDC: Percent inhibition of human HepG2 cell line. Test compounds present at 10uM.; format: functional
Examples of compounds with documented Inhibition follow.
Kindly provide the numeric value in % only, without the unit symbol.

[[record]]
compound = "CS(=O)(=O)c1ccc(CCNCc2ccc(-c3ccc(CN(C(=O)c4ccc(Cl)nc4)C4CCN(Cc5ccccc5)CC4)cc3)nc2)cc1.O=C(O)C(F)(F)F"
unit_of_measurement = "%"
observed_result = 24

[[record]]
compound = "CC1(C)N=C(N)N=C(N)N1c1ccc(Cl)c(Cl)c1.Cl"
unit_of_measurement = "%"
observed_result = 67

[[record]]
compound = "COc1ccc(-n2ccnc2)cc1CNC1CCN(CC2Cn3c(=O)ccc4ccc(F)c2c43)CC1.O=C(O)C(F)(F)F (stereo not drawn)"
unit_of_measurement = "%"
observed_result = 25

[[record]]
compound = "O=c1cc(NCCCN(Cc2ccccc2)Cc2ccccc2)[nH]c2ccccc12"
unit_of_measurement = "%"
observed_result = 7


[in] What Inhibition appears in the records for this compound with HepG2? `COc1ccc(O)c(-c2sc(N=C(N)N)nc2-c2ccccc2)c1`
[out] 2

[in] What Inhibition appears in the records for this compound with HepG2? `COc1cc2cc(-c3nc4ccccc4[nH]3)c(N)nc2cc1OC.Cl`
[out] 91

[in] What Inhibition appears in the records for this compound with HepG2? `Cn1nc(C(F)(F)F)c(-c2ccc(Br)cc2)c1NC(=O)Cc1ccccc1F`
[out] 6

[in] What Inhibition appears in the records for this compound with HepG2? `Cc1cc(N[C@@H](CC(C)C)C(=O)NCc2cccs2)nc(NCCc2cccs2)n1.O=C(O)C(F)(F)F`
[out] 0

[in] What Inhibition appears in the records for this compound with HepG2? `N#Cc1cncc(-c2nc3c(N4CCC(Cc5ccccc5)CC4)cccc3n2CCNCc2ccccc2)c1.O=C(O)C(F)(F)F`
[out] 2

[in] What Inhibition appears in the records for this compound with HepG2? `Cl.Oc1cc(Nc2ccnc3ccc(I)cc23)c(F)cc1Cl`
[out] 20

[in] What Inhibition appears in the records for this compound with HepG2? `Cc1cccc2nc(-c3cccc(-c4cccc(NC(=O)Nc5ccccc5)c4)c3)[nH]c12`
[out] 8

[in] What Inhibition appears in the records for this compound with HepG2? Cc1ccc(NC(=O)NC2CCN(c3ccnc4ccccc34)C2)cc1.O=C(O)C(F)(F)F (stereo not drawn)
[out] 7

[in] What Inhibition appears in the records for this compound with HepG2? `CCOC(=O)c1ccc(NC(=O)N(Cc2ccc(-c3cccc(CN4CCNCC4)c3)cc2)C2CCN(Cc3ccccc3)CC2)cc1.O=C(O)C(F)(F)F`
[out] 19

[in] What Inhibition appears in the records for this compound with HepG2? `COc1ccc(CNCc2cccc(-c3cccc(-c4nc5cc(C(F)(F)F)ccc5[nH]4)c3)c2)cc1.O=C(O)C(F)(F)F`
[out] 40

[in] What Inhibition appears in the records for this compound with HepG2? `CCN(CC)CCN(Cc1ccc(-c2ccc(C(F)(F)F)cc2)cc1)C(=O)Cn1c(CCc2cccc(F)c2F)cc(=O)c2c1CCCC2.O=C(O)C(O)C(O)C(=O)O`
[out] 93

[in] What Inhibition appears in the records for this compound with HepG2? `CCCCOC(=O)c1ccc(Nc2cc(C)nc3ccc(OC)cc23)cc1`
[out] 4

[in] What Inhibition appears in the records for this compound with HepG2? `O=C(/C=C/c1ccc(Cl)c(Cl)c1)NCCCCCCN1CCN(C(=O)Nc2ccc(OC(F)F)cc2)CC1`
[out] 44

[in] What Inhibition appears in the records for this compound with HepG2? OC(CNCc1ccccc1OCc1ccccc1)c1cccc(Br)c1 (stereo not drawn)
[out] 0

====

Examples of compounds with documented Inhibition follow.
test system: Plasmodium falciparum; test: GSK_TCMDC: Inhibition of Plasmodium falciparum 3D7 in whole red blood cells, using parasite LDH activity as an index of growth. Test compounds present at 2uM; type: functional

Known results for compounds:
[[record]]
compound_structure = "CC(C)Cn1c(N)cc(=O)n(C)c1=O"
target_system = "Plasmodium falciparum"
quantity = "Inhibition"
observed_result = "100%"

[[record]]
compound_structure = "COc1ccc(CNCc2cccc(-c3cccc(-c4nc5cc(C(F)(F)F)ccc5[nH]4)c3)c2)cc1.O=C(O)C(F)(F)F"
target_system = "Plasmodium falciparum"
quantity = "Inhibition"
observed_result = "100%"

[[record]]
compound_structure = "CN(C)c1nc(NN=Cc2cc(Cl)ccc2O)nc(Nc2ccc(F)cc2)n1"
target_system = "Plasmodium falciparum"
quantity = "Inhibition"
observed_result = "94%"

[[record]]
compound_structure = "Cc1cc(Nc2cccc(C(F)(F)F)c2)nc(NCc2ccccc2)n1"
target_system = "Plasmodium falciparum"
quantity = "Inhibition"
observed_result = "100%"


Now let's try a different one.
[in] I have this compound here, `COc1cc2nc(N3CCN(C(=O)c4c(Cl)nsc4-c4ccccc4Cl)CC3)nc(N)c2cc1OC.O=C(O)C(F)(F)F` , and I need its recorded Inhibition.
[out] 100%

====

Examples of molecules with documented Inhibition follow.
test system: Plasmodium falciparum; test: GSK_TCMDC: Inhibition of Plasmodium falciparum Dd2 in whole red blood cells, using parasite LDH activity as an index of growth. Test compounds present at 2uM; format: functional
Kindly provide the numeric value in % only, without the unit symbol.

Known results for molecules:
[[record]]
molecule = "COc1cccc(CCc2c(CCNCCCCCCNCCc3ccccc3)ccc(OC)c2OC)c1.Cl"
quantity = "Inhibition"
observed_result = 69

[[record]]
molecule = "CCc1cc(-c2onc(C(F)(F)F)c2-c2ccccc2)c(O)cc1OC"
quantity = "Inhibition"
observed_result = 73

[[record]]
molecule = "O=C(O)C(F)(F)F.O=C1OC2(CN1CC1CCN(Cc3ccc(O)cc3Cl)C1)c1ccccc1-c1ccccc12 (stereo not drawn)"
quantity = "Inhibition"
observed_result = 84

[[record]]
molecule = "CCCNC(=O)c1cncc(-c2ccc(CNCCCc3ccccc3)cc2)c1.O=C(O)C(F)(F)F"
quantity = "Inhibition"
observed_result = 29

[[record]]
molecule = "COc1cc2c(cc1C(F)(F)F)N(C(=O)Nc1cc(F)c(F)c(-c3cccnc3)c1)CC2"
quantity = "Inhibition"
observed_result = 15

[[record]]
molecule = "CCCN1CCN(Cc2ccc(C(=O)Nc3ccc(Cl)cc3)cc2)CC1.O=C(O)C(F)(F)F"
quantity = "Inhibition"
observed_result = 14

[[record]]
molecule = "CCOc1ccc(-c2nonc2NC(=O)c2ccc(OC(C)C)cc2)cc1OCC"
quantity = "Inhibition"
observed_result = 100

[[record]]
molecule = "Cc1c(Cn2nc(Cl)c(N3CCNCC3)cc2=O)cccc1NC(=O)Nc1ccc(-c2ccccc2)cc1.O=C(O)C(F)(F)F"
quantity = "Inhibition"
observed_result = 29

[[record]]
molecule = "Cl.NCCCOc1cnc(-c2ccccc2)c2nc(-c3nonc3N)n(CCc3ccccc3)c12"
quantity = "Inhibition"
observed_result = 86

[[record]]
molecule = "Cc1cccc2nc(-c3ccc(-c4ccc(CNCc5ccc(CN)cc5)cc4)cc3)[nH]c12.O=C(O)C(F)(F)F"
quantity = "Inhibition"
observed_result = 46


Now let's try a different one.
[in] I have this molecule here, `CC(=O)c1ccc(-c2ccc(C(=O)NCCCCN3CCC(c4ccc5c(c4O)CCCC5)CC3)cc2)cc1` , and I need its recorded Inhibition.
[out] 83
